// provenance: PubChem BioAssay (NCI)

Tested on: UO-31 renal
Assay: NCI tumour cell line growth inhibition, 48 h
observed-property: TGI

INSERT INTO measurements (compound, experimental_target, observed_property, test_value) VALUES
  ('CC(C)(C)c1[nH]cnc1/C=c1\[nH]c(=O)/c(=C/c2ccccc2)[nH]c1=O', 'UO-31 renal', 'TGI', '27.6 µM'),
  ('C/C1=C/C2=CC(C)C[C@@H]2C(=O)[C@]2(C)C(=O)CC(C)(C)[C@H]2CC1=O (stereo partly specified)', 'UO-31 renal', 'TGI', '> 50 µM'),
  ('CCOC(=O)[C@H]1Nc2c(cccc2[N+](=O)[O-])[C@H]2OCC[C@@H]12', 'UO-31 renal', 'TGI', '> 100 µM'),
  ('O=C1Nc2ccccc2S/C1=C\c1ccccc1C(F)(F)F', 'UO-31 renal', 'TGI', '> 100 µM'),
  ('Fc1ccc(OCc2nc3cc(C(F)(F)F)ccc3nc2-c2ccccc2)cc1', 'UO-31 renal', 'TGI', '> 100 µM');

For each of the items listed, what is its TGI?
1. CCC(=O)N1NC(=O)C(CC)(CC)C1=O
2. Nc1c(-c2nc3ccccc3o2)sc(=S)n1-c1ccc(Cl)cc1
3. Cc1ccc(S(=O)(=O)N/N=c2\c(C)c(C3=NS(=O)(=O)c4cc(S(N)(=O)=O)c(Cl)cc4N3)oc3c(Cl)cc(Cl)cc23)cc1
4. CCOC(=O)C1=C(C)OC(=O)[C@@]2(OC)C=C(Cl)[C@@]12C
5. O=C(c1ccc2ccccc2c1)N(Cc1cccnc1)C(=S)N(Cc1cccnc1)C(=O)c1ccc2ccccc2c1
6. CN=C(NC#N)NCCSCc1nc[nH]c1C
7. COc1ccc2c3c(n(Cc4ccccc4)c(=O)c2c1)-c1cc(OC)c(OC)cc1C3C (stereo unspecified)

1. > 100 µM
2. > 100 µM
3. > 100 µM
4. > 100 µM
5. 97.8 µM
6. > 100 µM
7. > 100 µM

For each of the items listed, what is its TGI?
1. COc1cc(=O)n2c3ccccc3n(C)c2c1C#N
2. O=C(O)NCc1ccccc1 (tested in a mixture with another compound)
3. Cc1ccc2nc(-c3ccc(-n4c(C)nc(=O)c(-c5ccc(F)cc5)c4C)cc3)sc2c1
4. CCOC(=O)N(c1ccccc1)c1cc(=O)n2ccccc2n1
5. COc1ccc2nc3cc(Cl)ccc3c(N3CCN(c4ccnc(N5CCOCC5)n4)CC3)c2c1
6. O=C1C(Cl)=C(N2C(=O)CCCC2=O)C(=O)c2ccccc21
7. NCCCCN(CCCN)C(=O)c1ccccc1
8. N/C(=N\N=C\c1c[nH]c2cc(C(F)(F)F)ccc2c1=O)NO

["> 100 µM", "91.9 µM", "30.6 µM", "> 100 µM", "> 100 µM", "23 µM", "> 100 µM", "> 10 µM"]

Quick check: TGI of O=C(CCCN1CCOCC1)Nc1ccc(Cn2nnc3c2C(=O)c2nnn(Cc4ccc(NC(=O)CCCN5CCOCC5)cc4)c2C3=O)cc1 ? > 100 µM

---

Tested on: SK-OV-3 ovarian
Assay: NCI tumour cell line growth inhibition, 48 h
observed-property: TGI

For each of the items listed, what is its TGI?
1. CC1(C)CCc2cc3c(cc2O1)OCC1c2cc4c(cc2OC31)OCO4 (stereo not drawn)
2. O=C1Nc2ccccc2S/C1=C\c1ccccc1C(F)(F)F
3. Cc1cc(=O)[nH]o1
4. CCSC1(SCC)CC(Cc2ccc(OC)cc2)N(C=NC(C)(C)C)C1 (stereo not drawn)
5. C/C1=C/C2=CC(C)C[C@@H]2C(=O)[C@]2(C)C(=O)CC(C)(C)[C@H]2CC1=O (stereo partly drawn)

1: > 100 µM; 2: > 100 µM; 3: > 100 µM; 4: 83.6 µM; 5: > 50 µM

For each of the items listed, what is its TGI?
1. Cc1ccc(Nc2n[nH]c(=S)s2)cc1
2. COc1ccc(-c2nn(-c3cccc(NC(=O)c4ccc5c(c4)OCCO5)c3)cc2-c2ccncc2)cc1Cl
3. O=C1c2ccccc2C(=O)c2c(NCCNCCO)ccc(O)c21
4. CC1CCN(CCCCCOc2ccc3oc4cc(Cl)ccc4c(=O)c3c2)CC1
5. COc1ccc2c(c1)c1c(n2CCN(C)C)-c2cccc(OC)c2CC1
6. O=C(O)c1ccc([N+]2=Cn3c(nc4ccccc43)C2)cc1
7. O=c1c2ccccc2n2n1CC(O)C2 (stereo not drawn)

["> 100 µM", "> 100 µM", "13.8 µM", "15.8 µM", "35 µM", "> 100 µM", "> 100 µM"]

For each of the items listed, what is its TGI?
1. O=P1(c2ccccc2)c2ccccc2CCc2ccccc21
2. N#Cc1c(NCCc2ccc(F)cc2)c2ccccc2n2c1nc1ccccc12

> 100 µM
> 100 µM

For each of the items listed, what is its TGI?
1. N#Cc1nc(COCc2ccccc2)oc1N
2. CN1C(=O)N/C(=C\c2ccc(S(=O)(=O)N/N=C\C(O)C(O)C(O)CO)cc2)C1=O (stereo not drawn)

> 100 µM
> 100 µM

For each of the items listed, what is its TGI?
1. Cc1cccc2c(N)c3cccc(C(=O)NCC[N+](C)(C)Cc4sccc4[N+](=O)[O-])c3nc12
2. C=CCCCC1SC2=C(CC)CCCN2C1=O (stereo not drawn)
3. O=C(c1ccccc1)c1ccc(OCCOc2ccc(Nc3ccccc3)cc2)cc1
4. COc1cc(C=C2N=C(c3ccccc3)N(n3c(-c4ccccc4)nc4ccccc4c3=O)C2=O)cc(OC)c1OC
5. Cc1ccc(/C(=C\C(=O)C(=O)NC23CC4CC(CC(C4)C2)C3)Sc2ccccc2)cc1
6. O=C(Nc1ccc(Cl)cc1F)c1cc(I)ccc1O
7. C=C1CCCCCCCCCCC12SCCC2CCCCSC (stereo not drawn)

41.3 µM
> 100 µM
64.4 µM
91.4 µM
> 10 µM
1.24 µM
> 100 µM

---

Tested on: HL-60(TB) leukemia
Assay: NCI tumour cell line growth inhibition, 48 h
observed-property: TGI

As a guide, the following entries are already answered.
INSERT INTO results (compound, experimental_target, test_value) VALUES
  ('CCn1c(-c2ccc(F)cc2)nc2c1C(=O)c1ccccc1C2=O', 'HL-60(TB) leukemia', '> 100 µM'),
  ('COC(=O)[C@]12CC[C@@H](C)[C@H](C)[C@@H]1C1=CC[C@@H]3[C@@]4(C)C(C=O)=C[C@@](C)(COC(=O)c5ccco5)[C@@H]4C(=O)C[C@@]3(C)[C@]1(C)CC2', 'HL-60(TB) leukemia', '15.4 µM'),
  ('COc1ccc2c3c(n(Cc4ccccc4)c(=O)c2c1)-c1cc(OC)c(OC)cc1C3C (stereo not given)', 'HL-60(TB) leukemia', '> 100 µM'),
  ('COC(=O)c1ccc(NC(=O)Nc2ccc3oc(=O)c4ccccc4c3c2)cc1', 'HL-60(TB) leukemia', '14 µM'),
  ('Nc1nncc2c1ccn2C1OC(CO)C(O)C1O (stereo not given)', 'HL-60(TB) leukemia', '> 100 µM'),
  ('CC(=O)OC(C)c1cc2c(s1)C(=O)c1scc(C(C)OC(C)=O)c1C2=O (stereo not given)', 'HL-60(TB) leukemia', '> 100 µM'),
  ('Cc1nc2ccccc2c(=O)n1NC(=O)c1ccc([N+](=O)[O-])cc1', 'HL-60(TB) leukemia', '> 100 µM'),
  ('COc1ccc(N=Nc2c(-c3ccccc3)nn(C(=O)CC(=O)Nc3cccc(Cl)c3)c2-c2ccccc2)cc1', 'HL-60(TB) leukemia', '> 100 µM'),
  ('O=C(CCl)NC(Cc1ccc(F)cc1)C(=O)O (stereo not given)', 'HL-60(TB) leukemia', '> 100 µM'),
  ('c1cc(-c2ccc(-c3ccc(C4=NC5CCCCC5N4)cc3)o2)ccc1C1=NC2CCCCC2N1 (stereo not given)', 'HL-60(TB) leukemia', '4.86 µM');

For each of the items listed, what is its TGI?
1. COc1c(NC(C)=O)cc(C)cc1NC(C)=O
2. CC(=O)C1=C(C)Cn2c(=O)c3ccccc3c(=O)n2C1
3. O=C1C(C(c2ccccc2)N2CCOCC2)=C(O)C(c2ccccc2)N1c1ccccc1 (stereo not given)
4. CCCC[N+](CCCC)=c1ccc2nc3c(C)cc(N(CC)CC)cc3sc-2c1
5. COC(=O)Nc1nc2ccc(S(=O)(=O)n3nnc4ccccc43)cc2[nH]1
6. O=c1ssc(Cl)c1Nc1c(Cl)ssc1=O
7. C1=Nc2sc3c(c2C2=NCCN12)CCCC3

1: > 100 µM; 2: > 100 µM; 3: > 10 µM; 4: 0.773 µM; 5: > 100 µM; 6: 35.1 µM; 7: 36.5 µM

For each of the items listed, what is its TGI?
1. CC/C(=C(/CC)c1ccc([O-])cc1)c1ccc([O-])cc1.CC/C(=C(\CC)c1ccc([O-])cc1)c1ccc([O-])cc1.O=C([CH-]C(=O)c1ccccc1)c1ccccc1.O=C([CH-]C(=O)c1ccccc1)c1ccccc1.O=C([CH-]C(=O)c1ccccc1)c1ccccc1.O=C([CH-]C(=O)c1ccccc1)c1ccccc1.[Ti+4].[Ti+4]
2. CO/N=C(/C(=O)N(C(=O)/C(=N/OC)c1csc(NC(c2ccccc2)(c2ccccc2)c2ccccc2)n1)n1cnn(CC(=O)OC(C)(C)C)c1=O)c1csc(NC(c2ccccc2)(c2ccccc2)c2ccccc2)n1
3. C=CC(C)(O)/C=C/C=C(\C)C(CC1OC1(C)C)OC(=O)/C(C)=C\C (stereo not given)

1. > 100 µM
2. > 10 µM
3. > 100 µM
